Heads up, these compounds all have IC50 values measured for EP2 (Homo sapiens (Human), UniProt P43116).

# Compound, Measurement units, IC50
records = [
    ("CCNc1cc(-c2cc(NCCn3c(C)cc4c5c(cc(Cl)c43)OCO5)ncn2)ccc1C(=O)O [compound 460]", "nM", 4),
    ("CCOc1cc(-c2cc(NCCn3c(C)cc4c(Cl)ccc(F)c43)ncn2)cc(Cl)c1C(=O)O [compound 450]", "nM", 9),
    ("CCOc1cc(-c2cc(NCCn3c(C)cc4c(C)c(F)cc(F)c43)ncn2)ccc1C(=O)O [compound 430]", "nM", 9),
    ("CCOc1cc(-c2cc(NCCn3c(C)cc4c(OC)cc(F)cc43)ncn2)ccc1C(=O)O [compound 403]", "nM", 20),
    ("CCCCOc1cc(-c2cc(NCCn3c(C)cc4c(OC)cc(F)cc43)ncn2)sc1C(=O)O [compound 672]", "nM", 1),
    ("Cc1c(F)cc(Cl)c2c1cc(C)n2CCNc1cc(-c2ccc(C(=O)O)c(SC(C)C)c2)ncn1 [compound 504]", "nM", 103),
    ("CCOc1cc(-c2cc(NCCn3c(Cl)cc4c(OC)ccc(F)c43)ncn2)sc1C(=O)O [Example 777]", "nM", 2),
    ("Cc1ccc(F)c2c1cc(C)n2CCNc1cc(-c2ccc3c(ccn3C)c2)ncn1 [compound 704]", "nM", 47),
    ("COc1ccc(F)c2c1cc(C)n2CCNc1cc(-c2ccc(N3CCCS3(=O)=O)cc2)ncn1 [compound 469]", "nM", 68),
    ("COc1cc(F)c(F)c2c1cc(C)n2CCNc1cc(-c2ccc(C(=O)O)c(NCC(F)(F)F)c2)ncn1 [compound 644]", "nM", 6),
    ("Cc1ccc(F)c2c1cc(C)n2CCNc1cc(-c2ccc(-c3n[nH]cc3C(=O)O)cc2)ncn1 [compound 456]", "nM", 233),
    ("COc1cc(F)c(F)c2c1cc(C)n2CCNc1cc(-c2ccc(C(=O)O)c(CC(C)C)c2)ncn1 [compound 621]", "nM", 34),
    ("CCCc1cc(-c2cc(NCCn3c(C)cc4cc(Cl)cc(F)c43)ncn2)cc(Cl)c1C(=O)O [compound 427]", "nM", 85),
    ("COc1ccc(F)c2c1cc(C)n2CCNc1cc(-c2cc(C(F)(F)F)c(C(=O)O)s2)ncn1 [compound 446]", "nM", 16),
    ("Cc1cc(F)c(F)c2c1cc(C)n2CCNc1cc(-c2cc(Cl)c(C(=O)O)c(OCC(C)C)c2)ncn1 [compound 694]", "nM", 49),
    ("CNS(=O)(=O)c1ccc(-c2cc(NCCn3c(C)cc4c(OC)ccc(F)c43)ncn2)cc1C(F)(F)F [compound 591]", "nM", 33),
]

The measured values listed here are drawn from patent US12011444B2.
